- Target Desc: H1 histamine receptor (Cavia porcellus)
- Construct: The longitudinal muscle was isolated from the intact ileum of guinea-pigs; from tissue; host or cells: guinea-pig ileum, longitudinal muscle (Hartly, male 250-400 g)
- Sequence (P31389 whole entry): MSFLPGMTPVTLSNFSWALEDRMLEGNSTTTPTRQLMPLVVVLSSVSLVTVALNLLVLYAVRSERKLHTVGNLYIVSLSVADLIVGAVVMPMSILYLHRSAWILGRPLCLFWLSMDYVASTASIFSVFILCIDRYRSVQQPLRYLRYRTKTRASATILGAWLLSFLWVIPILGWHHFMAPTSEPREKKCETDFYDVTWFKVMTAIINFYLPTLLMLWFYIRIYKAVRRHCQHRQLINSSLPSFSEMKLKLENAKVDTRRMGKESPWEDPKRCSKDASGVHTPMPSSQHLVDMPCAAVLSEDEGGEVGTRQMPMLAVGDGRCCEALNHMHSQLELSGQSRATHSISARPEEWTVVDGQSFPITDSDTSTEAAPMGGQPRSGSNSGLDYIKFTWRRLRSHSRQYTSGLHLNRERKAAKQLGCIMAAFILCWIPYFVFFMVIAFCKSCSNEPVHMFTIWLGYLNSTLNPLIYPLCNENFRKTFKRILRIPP
- Test Details: In vitro antihistaminic activity, isolated guinea-pig ileum longitudinal muscle, histamine concentration-response shift (Schild plot)
- Type: cell-based
- Condition Info: negative log of the molar concentration of antagonist which shifts the histamine concentration-response curve 2X to the right, 1 h incubation, read-out: pA2 (converted)
Measure Name: log10 of Kb (log10 of the value in nM)

| Smiles Entry | log10 of Kb |
| --- | --- |
| COc1ccc(/C(=C\CN2CCCC2)c2cccc(/C=C/C(=O)O)n2)cc1 | 0.10 |
| Cc1ccc(/C(=C\CN(C)C)c2cccc(/C=C/C(=O)O)n2)cc1 | 0.80 |
| O=C(O)/C=C/c1cccc(/C(=C/CN2CCCC2)c2ccc(Cl)cc2)n1 | 0.00 |
| O=C(O)/C=C/c1cccc(/C(=C/CN2CCCC2)c2ccccc2)n1 | 1.60 |
| Cc1ccc(/C(=C\CN2CCCC2)c2cccc(CCC(=O)O)n2)cc1 | -0.20 |
| Cc1ccc(/C(=C\CN2CCCC2)c2cccc(C(=O)O)n2)cc1 | 0.10 |
